- system: BACE1 (Homo sapiens (Human))
- Sequence (P56817 46-501, species assumed): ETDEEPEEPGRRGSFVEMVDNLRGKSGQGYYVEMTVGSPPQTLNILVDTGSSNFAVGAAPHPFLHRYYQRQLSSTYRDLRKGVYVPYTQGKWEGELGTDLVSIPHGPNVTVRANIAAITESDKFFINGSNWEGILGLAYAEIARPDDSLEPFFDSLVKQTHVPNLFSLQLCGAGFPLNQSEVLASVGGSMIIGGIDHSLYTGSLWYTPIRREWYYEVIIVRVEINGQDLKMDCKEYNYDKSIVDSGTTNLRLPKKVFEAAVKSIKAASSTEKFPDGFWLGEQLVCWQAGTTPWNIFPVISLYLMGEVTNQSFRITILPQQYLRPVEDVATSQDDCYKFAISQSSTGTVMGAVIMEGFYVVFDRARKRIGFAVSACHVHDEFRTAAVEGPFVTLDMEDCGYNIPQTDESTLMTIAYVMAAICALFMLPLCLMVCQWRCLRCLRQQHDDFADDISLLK
- testDescription: In vitro BACE1 cell-based assay (Aβ40 in conditioned medium of cells stably expressing APP, HTRF)
- runConditions: Aβ40 in conditioned media after 24 h incubation
propertyName: pIC50
// returns pIC50 (minus log10 of molar concentration), number only

Reference set (10 entries):
molecule: CN1C(N)=N[C@](C)(c2cc(/C=C(\F)c3cc4cc(Cl)ccc4cn3)ccc2F)CS1(=O)=O [Example 260]
pIC50: 5.38

molecule: Cc1noc(COc2cnc(/C(F)=C/c3ccc(F)c([C@]4(C)CS(=O)(=O)N(C)C(N)=N4)c3)cn2)n1 [Example 146]
pIC50: 8.22

molecule: CC1(C)C(N)=N[C@](C)(c2cc(/C=C(\F)c3cnc(OCCC(F)(F)F)cn3)ccc2F)CS1(=O)=O [Example 142]
pIC50: 6.13

molecule: C[C@]1(c2cc(/C=C(\F)c3cnc(OCC(F)(F)F)cn3)ccc2F)N=C(N)[C@@]2(CF)CC[C@@H]1S2(=O)=O [Example 109]
pIC50: 6.64

molecule: COc1cnc(/C(F)=C/c2ccc(F)c([C@@]3(C)N=C(N)[C@@]4(CF)CC[C@@H]3S4(=O)=O)c2)cn1 [Example 121]
pIC50: 6.72

molecule: C[C@]1(c2cc(/C=C(\F)c3cnc(OCC(F)(F)C(F)F)cn3)ccc2F)N=C(N)[C@@]2(CF)CC[C@@H]1S2(=O)=O [Example 120]
pIC50: 6.27

molecule: Cc1noc(COc2cnc(/C(F)=C/c3ccc(F)c([C@@]4(C)N=C(N)N(C)S(=O)(=O)C45CC5)c3)cn2)n1 [Example 161]
pIC50: 7.32

molecule: CC1(C)C(N)=N[C@](CF)(c2cc(/C=C(\F)c3ccc(C#N)cn3)ccc2F)CS1(=O)=O [Example 188]
pIC50: 6.65

molecule: C[C@H](O)COc1cnc(/C(F)=C/c2ccc(F)c([C@]3(C)CS(=O)(=O)C(C)(C)C(N)=N3)c2)cn1 [Example 219]
pIC50: 6.85

molecule: COc1cnc(/C(F)=C/c2ccc(F)c([C@]3(C)CS(=O)(=O)C(C)(C)C(N)=N3)c2)cn1 [Example 263]
pIC50: 6.88

Can you look up the measured pIC50 of C#C[C@H](C)Oc1cnc(/C(F)=C/c2ccc(F)c([C@]3(C)CS(=O)(=O)C(C)(C)C(N)=N3)c2)cn1 [Example 160] for me?
8.30

Can you look up the measured pIC50 of C[C@@]1(c2cc(/C=C(\F)c3ccc(C#N)cn3)ccc2F)CS(=O)(=O)C2(CCC2)C(N)=N1 [Example 103] for me?
7.41

Can you look up the measured pIC50 of C#CCOc1cnc(/C(F)=C/c2ccc(F)c([C@@]3(C)N=C(N)N(C)S(=O)(=O)C3(C)C)c2)cn1 [Example 183] for me?
7.12

Can you look up the measured pIC50 of CN1C(N)=N[C@](C)(c2cc(/C=C(\F)c3cnc(OCC(F)(F)F)cn3)ccc2F)CS1(=O)=O [Example 117] for me?
6.83

Can you look up the measured pIC50 of CC#C[C@@H](CC)Oc1cnc(/C(F)=C/c2ccc(F)c([C@]3(C)CS(=O)(=O)C(C)(C)C(N)=N3)c2)cn1 (single isomer, unassigned) [Example 198] for me?
6.76

Can you look up the measured pIC50 of CC1(C)C(N)=N[C@](C)(c2cc(/C=C(\F)c3cnc(OCCn4ccnc4)cn3)ccc2F)CS1(=O)=O [Example 155] for me?
6.01
